Target: T1, recombinant human TIGIT (human, UniProt Q495A1 22-141, limits assumed)
T1 construct: recombinant human TIGIT used in Carterra SPR; also called hTIGIT
T1 sequence (looked up): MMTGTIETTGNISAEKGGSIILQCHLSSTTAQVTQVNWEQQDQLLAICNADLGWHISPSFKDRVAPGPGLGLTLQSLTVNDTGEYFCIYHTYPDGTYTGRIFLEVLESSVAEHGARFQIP
Assay: SPR Carterra, average

{"Binder": "TIGIT-SC46 (Fc fusion, VHH-Fc fusion in assay) VHH: EVQLVESGGGLVQPGGSLRLSCAASGRTFSNYVMGWFRQAPGKERELVASISSFGSTYYADSVKGRFTISADNSKNTAYLQMNSLKPEDTAVYYCARSGGFLSDWGQGTLVTVSS", "Unit string": "M⁻¹ s⁻¹", "kon": "1.01e+06"}
{"Binder": "TIGIT-SC90 (Fc fusion, VHH-Fc fusion in assay) VHH: EVQLVESGGGLVQPGGSLRLSCAASGDTFSSKAMGWFRQAPGKEREFVAAIRWSVSSTYYADSVKGRFTISADNSKNTAYLQMNSLKPEDTAVYYCARWTRGLVSGTYYYYMDVWGQGTLVTVSS", "Unit string": "M⁻¹ s⁻¹", "kon": 50500}
{"Binder": "TIGIT-SC92 (Fc fusion, VHH-Fc fusion in assay) VHH: EVQLVESGGGLVQPGGSLRLSCAASGSTIENYAMGWFRQAPGKEREFVAAIDWSGGSTYYADSVKGRFTISADNSKNTAYLQMNSLKPEDTAVYYCARWRSIWSGYDDYYYMDVWGQGTLVTVSS", "Unit string": "M⁻¹ s⁻¹", "kon": 27500}
